System: Phospholipidosis
Test: Phospholipidosis-positive literature compound observed in dog
Type: ADME, Canis lupus familiaris

{"compound": "CC[C@H]1OC(=O)[C@H](C)[C@@H](O[C@H]2C[C@@](C)(OC)[C@@H](O)[C@H](C)O2)[C@H](C)[C@@H](O[C@@H]2O[C@H](C)C[C@H](N(C)C)[C@H]2O)[C@](C)(O)C[C@@H](C)C(=O)[C@H](C)[C@@H](O)[C@]1(C)O", "target.entity": "Phospholipidosis", "Phospholipidosis": "Active"}
{"compound": "CC(C)N(CCC(CCN1CCCCC1)(C(N)=O)c1ccccc1Cl)C(C)C (stereo not drawn) [DISOBUTAMIDE]", "target.entity": "Phospholipidosis", "Phospholipidosis": "Active"}
{"compound": "CCC(c1ccc(OCCN(CC)CC)cc1)C(CC)c1ccc(OCCN(CC)CC)cc1 (stereo not drawn)", "target.entity": "Phospholipidosis", "Phospholipidosis": "Active"}
